Source listed as patent US20150284331A1.

Measured acetylcholinesterase inhibitory activity inhibition ratio (%) accompanies every entry in the list below.
# MEASURED TARGET: acetylcholinesterase (Rattus norvegicus, UniProt P37136)
# Construct: Acetylcholinesterase: rat cortex; from tissue; host or cells: rat cortex
# Sequence (P37136 32-614): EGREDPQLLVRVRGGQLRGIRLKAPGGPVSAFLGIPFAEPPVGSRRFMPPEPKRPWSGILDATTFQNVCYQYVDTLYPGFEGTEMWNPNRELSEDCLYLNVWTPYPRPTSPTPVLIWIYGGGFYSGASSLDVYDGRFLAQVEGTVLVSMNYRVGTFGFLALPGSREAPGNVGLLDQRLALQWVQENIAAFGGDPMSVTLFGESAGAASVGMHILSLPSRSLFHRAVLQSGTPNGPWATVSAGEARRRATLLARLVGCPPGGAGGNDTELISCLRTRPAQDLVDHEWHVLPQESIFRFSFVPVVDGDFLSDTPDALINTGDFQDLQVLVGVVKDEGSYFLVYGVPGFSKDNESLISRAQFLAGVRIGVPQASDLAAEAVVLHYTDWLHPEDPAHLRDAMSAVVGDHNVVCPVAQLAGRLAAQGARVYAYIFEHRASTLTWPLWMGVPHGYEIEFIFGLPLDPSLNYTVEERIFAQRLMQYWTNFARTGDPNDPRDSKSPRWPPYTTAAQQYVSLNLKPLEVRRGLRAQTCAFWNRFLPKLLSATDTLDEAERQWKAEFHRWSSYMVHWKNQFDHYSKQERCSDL
# PROCEDURE SUMMARY: biochemical
# Type: biochemical
# CONDITION DESCRIPTION: rat cortex enzyme; final concentration 4×10−5 mol/L
# Protocol: Sample processing: All samples were formulated as 10-2 mol/L solution by using 100% DMSO. 10-2 mol/L solution was used in microdetermination. 1 μL was taken to use in single tube experiment. Solvent control: 0.4% DMSO was used in microdetermination. The inhibition ratio of the sample was obtained wherein the effect of solvent was deducted. Acetylcholinesterase: rat cortex
Answer format reminder: number followed by unit.

For orientation, consider the following solved cases.
[[record]]
molecule = "COc1cc2c(cc1OC)C(=O)C(CC1(F)CCN(C(=O)c3ccccc3)CC1)C2 (stereo not shown)"
measured_target = "acetylcholinesterase (Rattus norvegicus, UniProt P37136)"
observed = "57.09%"

[[record]]
molecule = "COc1cc2c(cc1OC)C(=O)C(CC1(F)CC3CCC(C1)N3Cc1cccc(C(F)(F)F)c1)C2 (stereo not shown)"
measured_target = "acetylcholinesterase (Rattus norvegicus, UniProt P37136)"
observed = "76.51%"

[[record]]
molecule = "COc1cc2c(cc1OC)C(=O)C(CC1(F)CC3CCC(C1)N3Cc1ccccc1[N+](=O)[O-])C2 (stereo not shown)"
measured_target = "acetylcholinesterase (Rattus norvegicus, UniProt P37136)"
observed = "93.80%"


Turning to the following molecule.
Short answer for COc1cc2c(cc1OC)C(=O)C(CC1(F)CCN(Cc3c(F)c(F)c(F)c(F)c3F)CC1)C2 (stereo not shown) : acetylcholinesterase inhibitory activity inhibition ratio (%) was 96.5%

* * *

# MEASURED TARGET: acetylcholinesterase (Rattus norvegicus, UniProt P37136)
# Construct: Acetylcholinesterase: rat cortex; from tissue; host or cells: rat cortex
# PROCEDURE SUMMARY: biochemical
# Format: biochemical
# CONDITION DESCRIPTION: rat cortex enzyme; final concentration 4×10−5 mol/L
QUANTITY NAME: acetylcholinesterase inhibitory activity inhibition ratio (%)
Give your result in % as a bare value.

For orientation, consider the following solved cases.
[[record]]
molecule = "COc1cc2c(cc1OC)C(=O)C(CC1(F)CC3CCC(C1)N3Cc1cc(C)cc(C)c1)C2 (stereo not shown)"
observed = 95.27

[[record]]
molecule = "COc1cc2c(cc1OC)C(=O)C(CC1(F)CC3CCC(C1)N3Cc1ccc([N+](=O)[O-])cc1)C2 (stereo not shown)"
observed = 56.8

[[record]]
molecule = "COc1cc2c(cc1OC)C(=O)C(CC1(F)CC3CCC(C1)N3Cc1c(F)c(F)c(F)c(F)c1F)C2 (stereo not shown)"
observed = 93.80


Turning to the following molecule.
Short answer for COc1cc2c(cc1OC)C(=O)C(CC1(F)CC3CCC(C1)N3Cc1ccccc1)C2 (stereo not shown) : acetylcholinesterase inhibitory activity inhibition ratio (%) was 86.12

* * *

# MEASURED TARGET: butyrylcholinesterase (Rattus norvegicus)
# Construct: Butyrylcholinesterase: rat serum; from tissue; host or cells: rat serum
# Sequence (Q9JKC1 24-597): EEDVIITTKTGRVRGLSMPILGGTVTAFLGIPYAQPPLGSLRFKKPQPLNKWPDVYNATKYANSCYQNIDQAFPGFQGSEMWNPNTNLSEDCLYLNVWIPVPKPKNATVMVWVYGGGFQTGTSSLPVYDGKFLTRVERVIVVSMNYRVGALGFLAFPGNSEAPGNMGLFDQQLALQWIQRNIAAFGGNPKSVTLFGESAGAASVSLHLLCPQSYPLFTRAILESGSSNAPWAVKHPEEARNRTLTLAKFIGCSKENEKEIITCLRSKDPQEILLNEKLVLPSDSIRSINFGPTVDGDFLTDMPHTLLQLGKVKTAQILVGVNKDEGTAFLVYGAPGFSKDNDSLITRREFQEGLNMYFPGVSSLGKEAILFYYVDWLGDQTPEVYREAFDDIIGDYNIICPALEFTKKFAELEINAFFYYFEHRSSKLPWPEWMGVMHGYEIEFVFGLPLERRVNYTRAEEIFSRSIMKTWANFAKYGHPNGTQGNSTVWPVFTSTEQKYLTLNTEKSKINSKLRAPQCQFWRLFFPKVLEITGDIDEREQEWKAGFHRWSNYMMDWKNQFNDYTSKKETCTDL
# PROCEDURE SUMMARY: inhibition of butyrylcholinesterase (rat serum)
# Assay type: biochemical
# CONDITION DESCRIPTION: rat serum enzyme; final concentration 4×10−5 mol/L
QUANTITY NAME: butyrylcholinesterase inhibitory activity inhibition ratio (%)
Give your result in % as a bare value.

[[record]]
compound = "COc1cc2c(cc1OC)C(=O)C(CC1(F)CC3CCC(C1)N3Cc1ccccc1)C2 (stereo not drawn)"
measured_target = "butyrylcholinesterase (Rattus norvegicus)"
readout_unit = "%"
observed = 69.03

[[record]]
compound = "COc1cc2c(cc1OC)C(=O)C(CC1(F)CCN(Cc3cc(F)cc(F)c3)CC1)C2 (stereo not drawn)"
measured_target = "butyrylcholinesterase (Rattus norvegicus)"
readout_unit = "%"
observed = 18.07


Turning to the following compound.
Short answer for CCOCOc1cc2c(cc1OCOCC)C(=O)C(CC1(F)CCN(Cc3ccccc3F)CC1)C2 (stereo not drawn) : butyrylcholinesterase inhibitory activity inhibition ratio (%) was 75.0
